Test system: NCI-H196 complex spheroid viability
Assay: Anticancer human tumor NCI-H196 cell line growth inhibition [LSD1];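 further: spheroids exposed to agents for 7 days before readout; 100% = DMSO vehicle control viability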
Conditions: second compound 0.316 µM; first compound 0.01 µM; stronger effect = lower value
MEASUREMENT LABEL: viability, T/C (%)

- CC(C)CC(NC(=O)C(Cc1ccccc1)NC(=O)c1cnccn1)B(O)O (centres undefined) + NC1CCC(NC2CC2c2ccccc2)CC1: 2.71
- CC(C)CC(NC(=O)C(Cc1ccccc1)NC(=O)c1cnccn1)B(O)O (centres undefined) + NC1CC1c1ccc(-c2cccc(O)c2)cc1: 2.27
- CC[C@@]1(O)C(=O)OCc2c1cc1n(c2=O)Cc2cc3c(CN(C)C)c(O)ccc3nc2-1 + NC1CC1c1ccc(-c2cccc(O)c2)cc1: 109
- CC1COCCN1c1cc(-c2ccnn2C)c2ccnc(-c3ccn[nH]3)c2n1 (centres undefined) + NC1CC1c1ccc(-c2cccc(O)c2)cc1: 78.7
